target.or.system: T1, Fusion protein of extracellular domain of human TIGIT and His-tag (human TIGIT ECD-his) (human)
T1 chain: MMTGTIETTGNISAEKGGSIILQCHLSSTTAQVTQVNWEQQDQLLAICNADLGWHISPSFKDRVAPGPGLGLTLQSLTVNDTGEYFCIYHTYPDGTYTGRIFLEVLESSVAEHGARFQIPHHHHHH
assay.method.text: BIAcore
Measured kon, listed per entry for reference.

{"binder": "TIGIT-070-H2L1 (antibody, V domains shown, Humanized anti-TIGIT antibody) VH: EVQLVQSGAEVKKPGASVKVSCKASGYTFTNYYMHWVRQAPGQRLEWMGRIDPDSGGSKYNEKFKSRVTITVDKLSSTAYMELSSLRSEDTAVYYCAREGHYGFYSDYWGQGTTVTVSS VL: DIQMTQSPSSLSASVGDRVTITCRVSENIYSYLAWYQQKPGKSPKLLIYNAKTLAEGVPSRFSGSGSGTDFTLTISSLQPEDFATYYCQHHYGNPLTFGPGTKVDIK", "kon, M⁻¹ s⁻¹": "1.66e+06"}
{"binder": "TIGIT-070-H1L1 (antibody, V domains shown, Humanized anti-TIGIT antibody) VH: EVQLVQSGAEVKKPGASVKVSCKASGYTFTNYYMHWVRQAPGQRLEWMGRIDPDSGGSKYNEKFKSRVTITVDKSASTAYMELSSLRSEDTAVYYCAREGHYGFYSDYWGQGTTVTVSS VL: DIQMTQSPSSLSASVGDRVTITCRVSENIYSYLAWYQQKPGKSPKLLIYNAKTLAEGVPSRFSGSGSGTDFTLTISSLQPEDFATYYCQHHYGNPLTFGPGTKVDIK", "kon, M⁻¹ s⁻¹": "1.98e+06"}
{"binder": "TIGIT-006-H3L3 (antibody, V domains shown, Humanized anti-TIGIT antibody) VH: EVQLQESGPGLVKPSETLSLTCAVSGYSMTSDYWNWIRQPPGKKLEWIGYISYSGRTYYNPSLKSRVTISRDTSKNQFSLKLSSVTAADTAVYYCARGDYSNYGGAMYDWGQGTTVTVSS VL: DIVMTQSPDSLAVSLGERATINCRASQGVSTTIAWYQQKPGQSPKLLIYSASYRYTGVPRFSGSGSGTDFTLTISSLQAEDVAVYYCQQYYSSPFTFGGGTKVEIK", "kon, M⁻¹ s⁻¹": 365000}
